tested.target: human orexin-1 receptor (Homo sapiens)
Construct: expressed in transfected cells; host or cells: CHO cells (G418 selection)
Sequence (O43613 1-425): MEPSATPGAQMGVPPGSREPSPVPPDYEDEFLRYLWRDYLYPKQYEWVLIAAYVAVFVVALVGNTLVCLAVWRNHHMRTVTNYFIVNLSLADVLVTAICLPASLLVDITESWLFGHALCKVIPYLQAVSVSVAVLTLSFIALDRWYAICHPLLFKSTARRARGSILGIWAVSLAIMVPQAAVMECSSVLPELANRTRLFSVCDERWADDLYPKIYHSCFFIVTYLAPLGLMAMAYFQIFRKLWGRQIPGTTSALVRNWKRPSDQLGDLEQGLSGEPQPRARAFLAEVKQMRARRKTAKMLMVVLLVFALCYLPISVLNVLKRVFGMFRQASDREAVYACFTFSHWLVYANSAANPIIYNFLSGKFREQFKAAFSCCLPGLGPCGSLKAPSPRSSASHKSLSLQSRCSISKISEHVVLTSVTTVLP
test.description: Intracellular calcium measurement (FLIPR), orexin-1 receptor antagonism
Type: cell-based
test.conditions: 1 uM compound; CHO cells expressing human orexin-1 receptor; 3 nM orexin-A agonist; read-out: % Inhibition of OX1R @ 1 uM compound
value.type: inhibition at 1 µM (%)

1) CCc1cnc(NC[C@@H]2CCCN2C(=O)c2c(-c3ccccc3F)nc3sccn23)nc1 [Example 15] = 25.1
2) C[C@@H]1CCCN(C(=O)c2c(-c3ccccc3)nc3sccn23)[C@@H]1CNc1ccc(C(F)(F)F)cn1 [Example 9] = 81.4
3) O=C(c1c(-c2ccccc2F)nc2sccn12)N1CCC[C@H]1CNc1ccc(C(F)(F)F)cn1 [Example 13] = 62.8
4) O=C(c1c(-c2ccccc2F)nc2sccn12)N1CCC[C@H]1Cn1ccc(-c2ccccc2)n1 [Example 14] = 87.4
5) CCc1cnc(NC[C@@H]2[C@H](C)CCCN2C(=O)c2c(-c3ccccc3)nc3sccn23)nc1 [Example 10] = 63.5

a. O=C(c1c(-c2ccccc2)nc2occn12)N1CCC[C@H]1COc1ccc(C(F)(F)F)cn1 [Example 18]
b. O=C(c1c(-c2ccccc2)nc2occn12)N1CCC[C@H]1Cn1ccc(-c2ccccc2)n1 [Example 1]
c. CCc1cnc(NC[C@@H]2CCCN2C(=O)c2c(-c3ccccc3)nc3sccn23)nc1 [Example 6]
**Q:** Order the 3 molecules from highest to lowest inhibition at 1 µM. Reply format: the labels, ordered as requested.
**A:** b, a, c
(b: 70.4%, a: 37.1%, c: -5.39%)

a. C[C@@H]1CCCN(C(=O)c2c(-c3ccccc3)nc3occn23)[C@@H]1CNc1ccc(C(F)(F)F)cn1 [Example 8]
b. CCc1cnc(OC[C@@H]2CCCN2C(=O)c2c(-c3ccccc3)nc3occn23)nc1 [Example 17]
**Q:** Which gives the smaller inhibition at 1 µM number: a or b ? Respond using the label that marks the chosen record.
**A:** b
(b: 4.5%, a: 81.6%)

a. Cc1nn2c(C(=O)N3CCC[C@@H](C)[C@H]3CNc3ccc(C(F)(F)F)cn3)c(-c3ccc(F)cc3)nc2s1 [Example 12]
b. CCc1cnc(NC[C@@H]2CCCN2C(=O)c2c(-c3ccccc3)nc3occn23)nc1 [Example 5]
**Q:** Higher inhibition at 1 µM between a and b ? Respond using the label that marks the chosen record.
**A:** a
(a: 79.8%, b: 0.5%)
